biological target: VR1 (Homo sapiens, UniProt Q8NER1); test: Acid stimulation assay (FDSS 6000, intracellular calcium); settings: final assay buffer pH5.8, 15 minutes pre-incubation
Sequence (Q8NER1 whole entry, species assumed): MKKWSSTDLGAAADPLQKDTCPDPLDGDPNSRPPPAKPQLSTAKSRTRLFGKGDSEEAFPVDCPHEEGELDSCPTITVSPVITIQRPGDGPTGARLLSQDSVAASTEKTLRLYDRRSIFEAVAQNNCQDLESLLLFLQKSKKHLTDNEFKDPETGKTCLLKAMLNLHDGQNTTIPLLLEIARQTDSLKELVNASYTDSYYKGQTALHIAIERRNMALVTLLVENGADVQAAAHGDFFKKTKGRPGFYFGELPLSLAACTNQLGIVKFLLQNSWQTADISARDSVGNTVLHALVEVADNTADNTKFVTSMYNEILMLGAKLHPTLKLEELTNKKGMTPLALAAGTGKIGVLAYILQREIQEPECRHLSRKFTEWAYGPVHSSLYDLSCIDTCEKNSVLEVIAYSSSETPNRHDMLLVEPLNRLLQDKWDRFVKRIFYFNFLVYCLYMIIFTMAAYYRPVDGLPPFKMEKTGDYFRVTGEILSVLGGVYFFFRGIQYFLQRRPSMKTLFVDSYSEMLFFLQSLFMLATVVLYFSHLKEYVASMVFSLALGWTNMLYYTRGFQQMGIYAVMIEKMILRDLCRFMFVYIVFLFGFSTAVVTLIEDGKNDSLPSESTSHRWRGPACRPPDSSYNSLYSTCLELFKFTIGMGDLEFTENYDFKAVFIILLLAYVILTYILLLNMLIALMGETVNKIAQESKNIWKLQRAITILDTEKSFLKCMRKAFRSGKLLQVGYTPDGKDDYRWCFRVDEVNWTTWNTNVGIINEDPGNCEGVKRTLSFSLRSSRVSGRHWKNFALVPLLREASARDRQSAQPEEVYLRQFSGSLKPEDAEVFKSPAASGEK
ASSAY ENDPOINT: IC50 (nM)

INSERT INTO measurements (compound, recorded_number) VALUES
  ('O=C(Nc1ccc2c(c1)OCC(CO)O2)c1ccc(/C=C/C(F)(F)F)cc1 (single isomer, unassigned)', 5),
  ('O=C(Nc1ccc2c(c1)OCCN2)c1ccc(C#CC(F)(F)F)cc1', 5);

* * *

experiment: Half-life in human liver microsomes (HLM); type: in vitro ADME; settings: human liver microsomes (HLM, HL101), pH 7.4, 1 μM compound, 0.78 mg/mL HLM, NADPH, 37° C.
ASSAY ENDPOINT: half-life at 1 μM (min)

INSERT INTO results (entry_smiles, output_unit, recorded_number) VALUES
  ('O=C(Nc1ccc2c(c1)OCCN2)c1ccc(/C=C/C(F)(F)F)cc1', 'min', 24),
  ('CC(C)(C)C#Cc1ccc(C(=O)Nc2cccc3cnccc23)cc1OCCN1CCOCC1', 'min', 21);
